target_or_system: Cannabinoid receptor 1 (Homo sapiens, UniProt P21554)
Sequence (P21554 whole entry): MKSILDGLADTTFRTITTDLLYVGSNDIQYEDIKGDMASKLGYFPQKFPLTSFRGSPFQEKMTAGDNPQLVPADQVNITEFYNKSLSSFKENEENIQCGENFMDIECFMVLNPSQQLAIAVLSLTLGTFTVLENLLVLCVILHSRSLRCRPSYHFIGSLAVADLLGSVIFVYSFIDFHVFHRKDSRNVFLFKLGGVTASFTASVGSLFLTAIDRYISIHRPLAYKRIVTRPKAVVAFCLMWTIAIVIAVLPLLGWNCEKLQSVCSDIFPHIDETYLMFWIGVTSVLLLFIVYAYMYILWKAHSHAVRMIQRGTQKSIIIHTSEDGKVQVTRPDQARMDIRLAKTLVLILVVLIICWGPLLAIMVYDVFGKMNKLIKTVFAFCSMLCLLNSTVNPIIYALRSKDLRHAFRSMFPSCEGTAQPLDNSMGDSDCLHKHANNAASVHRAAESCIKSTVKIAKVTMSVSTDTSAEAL
assay_remarks: Evaluated for binding affinity against recombinant human central cannabinoid receptor 1
The compounds listed here are annotated with their pKi.
Reminder that pKi means the negative base-10 logarithm of the concentration expressed in mol/L.

Examples with their reported pKi follow.
smiles_notation | pKi
COc1ccc2c(c1)c(CC(=O)N1CCOCC1)c(C)n2C(=O)c1ccc(F)cc1Cl | 5.25
Cc1c(CCN2CCOCC2)c2ccccc2n1C(=O)c1cccc(Cl)c1Cl | 5.50
COC(=O)Cc1c(C)n(C(=O)c2ccccc2Cl)c2ccc(OC)cc12 | 5.76

Input line: Any idea what pKi was measured for COc1ccc2c(c1)c(CCN1CCOCC1)c(C)n2C(=O)c1cccc(Cl)c1Cl ?
Output line: 5.72

Input line: Record request: pKi value, item COC(=O)Cc1c(C)n(C(=O)c2cccc3ccccc23)c2ccc(OC)cc12
Output line: 5.34

Input line: Which pKi value belongs to COc1ccc2c(c1)c(CC(=O)N1CCOCC1)c(C)n2C(=O)c1cccc(Cl)c1Cl ?
Output line: 5.69

Input line: Which pKi reading was recorded for the compound Cc1c(CCN2CCOCC2)c2ccccc2n1C(=O)c1cccc2ccccc12 ?
Output line: 5.66

Input line: Sample COc1ccc2c(c1)c(CC(=O)N1CCOCC1)c(C)n2C(=O)c1cccc(Cl)c1 — what was its pKi?
Output line: 4.77

Input line: Data request, read-out pKi, for Cc1c(CN2CCOCC2)c2ccccc2n1-c1cccc2ccccc12
Output line: 5.18

Input line: So what's the measured pKi for this one? Cc1c(CN2CCOCC2)c2ccccc2n1C(=O)c1cccc2ccccc12
Output line: 6.06

---

target_or_system: Cannabinoid receptor 1 (Homo sapiens, UniProt P21554)
assay_remarks: Evaluated for binding affinity against recombinant human central cannabinoid receptor 1
measured_attribute: log10 of Ki (log10 of the value in µM)
Values are log10 of Ki in µM.

smiles_notation | target_or_system | measured_attribute | experimental_value
COc1ccc2c(c1)c(CN1CCOCC1)c(C)n2C(=O)c1cccc(Cl)c1Cl | Cannabinoid receptor 1 (Homo sapiens, UniProt P21554) | log10 of Ki | 0.53
COc1ccc2c(c1)c(CCN1CCOCC1)c(C)n2C(=O)c1ccc(Cl)cc1 | Cannabinoid receptor 1 (Homo sapiens, UniProt P21554) | log10 of Ki | 1.01
COc1ccc2c(c1)c(CC(=O)N1CCOCC1)c(C)n2C(=O)c1c(Cl)cccc1Cl | Cannabinoid receptor 1 (Homo sapiens, UniProt P21554) | log10 of Ki | 0.41

Input line: Give the reported log10 of Ki for Cc1c(C(=O)c2cccc3ccccc23)c2ccccc2n1CCN1CCOCC1 (system: Cannabinoid receptor 1 (Homo sapiens, UniProt P21554)).
Output line: -0.20

Input line: Enter reported log10 of Ki observed with Cannabinoid receptor 1 (Homo sapiens, UniProt P21554) for COc1ccc2c(c1)c(CC(=O)N1CCOCC1)c(C)n2C(=O)c1ccccc1Cl
Output line: 0.56

---

target_or_system: Cannabinoid receptor 2 (Homo sapiens, UniProt P34972)
Sequence (P34972 whole entry): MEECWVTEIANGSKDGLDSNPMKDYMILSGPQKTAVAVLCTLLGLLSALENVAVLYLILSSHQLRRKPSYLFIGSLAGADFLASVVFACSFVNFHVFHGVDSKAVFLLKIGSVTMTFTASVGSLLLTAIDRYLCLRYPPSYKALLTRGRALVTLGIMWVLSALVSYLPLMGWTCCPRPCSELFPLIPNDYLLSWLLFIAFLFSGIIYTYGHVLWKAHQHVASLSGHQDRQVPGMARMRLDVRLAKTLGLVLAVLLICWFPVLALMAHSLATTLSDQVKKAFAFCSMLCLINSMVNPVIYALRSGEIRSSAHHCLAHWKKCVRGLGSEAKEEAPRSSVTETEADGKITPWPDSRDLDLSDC
assay_remarks: Evaluated for binding affinity against recombinant human peripheral cannabinoid receptor 2
In this section, each of the compounds is paired with its reported pKi.
// field semantics: pKi = negative decimal log of concentration (mol/L)

Completed entries (count: 6):
compound | target_or_system | measured_attribute | experimental_value
COc1ccc2c(c1)c(CC(=O)N1CCOCC1)c(C)n2C(=O)c1c(Cl)cccc1Cl | Cannabinoid receptor 2 (Homo sapiens, UniProt P34972) | pKi | 7.23
COC(=O)Cc1c(C)n(C(=O)c2ccc(Cl)cc2)c2ccc(OC)cc12 | Cannabinoid receptor 2 (Homo sapiens, UniProt P34972) | pKi | 5.40
COc1ccc2c(c1)c(CCN1CCOCC1)c(C)n2C(=O)c1cccc(Cl)c1Cl | Cannabinoid receptor 2 (Homo sapiens, UniProt P34972) | pKi | 7.92
COc1ccc2c(c1)c(CCN1CCOCC1)c(C)n2C(=O)c1ccc(Cl)cc1 | Cannabinoid receptor 2 (Homo sapiens, UniProt P34972) | pKi | 6.67
Cc1c(C(=O)c2cccc3ccccc23)c2ccccc2n1CCN1CCOCC1 | Cannabinoid receptor 2 (Homo sapiens, UniProt P34972) | pKi | 7.85
COC(=O)Cc1c(C)n(C(=O)c2cccc3ccccc23)c2ccc(OC)cc12 | Cannabinoid receptor 2 (Homo sapiens, UniProt P34972) | pKi | 6.85

Input line: Write down the reported pKi of Cc1c(CN2CCOCC2)c2ccccc2n1C(=O)c1cccc2ccccc12 , test system: Cannabinoid receptor 2 (Homo sapiens, UniProt P34972).
Output line: 8.07

Input line: Notebook: pull reported pKi for Cannabinoid receptor 2 (Homo sapiens, UniProt P34972), entry COc1ccc2c(c1)c(CC(=O)N1CCOCC1)c(C)n2C(=O)c1cccc(Cl)c1Cl
Output line: 7.85

Input line: Short answer please: pKi, Cannabinoid receptor 2 (Homo sapiens, UniProt P34972), entry COc1ccc2c(c1)c(CC(=O)N1CCOCC1)c(C)n2C(=O)c1cccc(Cl)c1
Output line: 6.45

Input line: // map COc1ccc2c(c1)c(CC(=O)N1CCOCC1)c(C)n2C(=O)c1ccc(F)cc1Cl to recorded pKi (system: Cannabinoid receptor 2 (Homo sapiens, UniProt P34972))
Output line: 6.87

Input line: # get_value(readout= pKi, system= Cannabinoid receptor 2 (Homo sapiens, UniProt P34972)) for COC(=O)Cc1c(C)n(C(=O)c2ccccc2Cl)c2ccc(OC)cc12
Output line: 6.40

---

Each entry below carries its recorded pKi.
target_or_system: Cannabinoid receptor 1 (Homo sapiens)
assay_remarks: Evaluated for binding affinity against recombinant human central cannabinoid receptor 1
pKi: −log10 of the molar value.

Solved cases (2 shown):
compound | experimental_value
COc1ccc2c(c1)c(CC(=O)N1CCOCC1)c(C)n2C(=O)c1ccc(Cl)cc1 [INDOMETHACIN MORPHOLINYLAMIDE] | < 4.70
COc1ccc2c(c1)c(CC(=O)N1CCOCC1)c(C)n2Cc1cccc(Cl)c1Cl | < 4.70

// below: pKi requested for another compound
Input line: Which value of pKi has been reported for COC(=O)Cc1c(C)n(C(=O)c2ccc(Cl)cc2)c2ccc(OC)cc12 in the records?
Output line: < 4.70

---

target_or_system: Cannabinoid receptor 2 (Homo sapiens)
assay_remarks: Evaluated for binding affinity against recombinant human peripheral cannabinoid receptor 2
measured_attribute: pKi
The value called pKi is obtained by taking minus log10 of the concentration in mol/L.

compound | measured_attribute | experimental_value
COc1ccc2c(c1)c(CN1CCOCC1)c(C)n2C(=O)c1cccc(Cl)c1Cl | pKi | 7.66
Cc1c(CCN2CCOCC2)c2ccccc2n1C(=O)c1cccc2ccccc12 | pKi | 6.67
COc1ccc2c(c1)c(CC(=O)N1CCOCC1)c(C)n2C(=O)c1ccccc1Cl | pKi | 7.16
COc1ccc2c(c1)c(CC(=O)N1CCOCC1)c(C)n2C(=O)c1ccc(Cl)cc1 [INDOMETHACIN MORPHOLINYLAMIDE] | pKi | 6.36
Cc1c(CN2CCOCC2)c2ccccc2n1-c1cccc2ccccc12 | pKi | 5.11
Cc1c(CCN2CCOCC2)c2ccccc2n1C(=O)c1cccc(Cl)c1Cl | pKi | 7.57

Input line: // lookup pKi | system=Cannabinoid receptor 2 (Homo sapiens) | key= COc1ccc2c(c1)c(CC(=O)N1CCOCC1)c(C)n2Cc1cccc(Cl)c1Cl
Output line: 5.98
